- measured.target: KRas G12D (Homo sapiens, UniProt P01116, G12D)
- Sequence (P01116 1-169 isoform P01116-2 G12D): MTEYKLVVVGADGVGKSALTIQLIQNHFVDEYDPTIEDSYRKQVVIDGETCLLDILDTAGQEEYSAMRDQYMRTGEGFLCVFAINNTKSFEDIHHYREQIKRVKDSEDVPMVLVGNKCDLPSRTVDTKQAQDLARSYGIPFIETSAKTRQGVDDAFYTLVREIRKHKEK
- protocol.summary: KRas G12D Binding Assay (TR-FRET displacement of labeled tracer)
- stated.conditions: TR-FRET displacement of Cy5 labelled tracer, biotinylated GDP-loaded KRAS G12D (aa 1:169), 60 minute incubation at 22° C.
measure: pIC50
Schema: pIC50 number; meaning minus log10 of the concentration expressed in molar units.

Item: CNC(=O)OCC1CCC2(COc3nc4c(c(N5C[C@H]6CC[C@@H](C5)N6)n3)CCN(c3cccc5cccc(Cl)c35)C4)CCCN12 (mixture of isomers) [Example 100] | pIC50: 8.01

response.value for CN1CCC[C@H]1COc1nc2c(c(N3C[C@H]4CC[C@@H](C3)N4)n1)CCN(c1cccc3cccc(CCCO)c13)C2 [Example 79] (field: pIC50) = 6.31

The compound listed as CCc1cccc2cccc(N3CCc4c(nc(OCC56CCCN5C(COC(=O)N(C)OC)CC6)nc4N4C[C@H]5CC[C@@H](C4)N5)C3)c12 (mixture of isomers) [Example 68] shows pIC50 equal to 8.23

Documented pIC50 of CN1CCC[C@H]1COc1nc2c(c(N3C[C@H]4CC[C@@H](C3)N4)n1)CCN(c1cc(O)cc3cccc(Cl)c13)C2 [Example 28] : 8.92

Form field pIC50, entry c1cc2c(c(N3CCc4c(nc(OCC56CCCN5CCC6)nc4N4C[C@H]5CC[C@@H](C4)N5)C3)c1)C(C1CC1)CC2 (stereo partly shown) [Example 102] : 6.18

The value of pIC50 measured for the compound C[C@@H]1CC2CN(c3nc(OC[C@@H]4CCCN4C)nc4c3CCN(c3cccc5cccc(Cl)c35)C4)C[C@H]1N2 (single isomer, unassigned) [Example 87] turned out to be 6.57

Sure, the documented pIC50 for CCc1cccc2cccc(N3CCc4c(nc(OC[C@@]56CCCN5C[C@H](F)C6)nc4[C@@H]4C[C@H]5CC[C@@H](C4)N5)C3)c12 [Example 122] is 6.63

CN1CCC[C@H]1COc1nc2c(c(N3C[C@H]4C/C(=C/C#N)[C@@H](C3)N4)n1)CCN(c1cccc3cccc(Cl)c13)C2 (single isomer, unassigned) [Example 90] has a reported pIC50 of 5.83

Entry Clc1ccc2cccc(N3CCc4c(nc(OCC56CCCN5CCC6)nc4N4C[C@H]5CC[C@@H](C4)N5)C3)c2c1Cl [Example 12] ; pIC50 = 6.46

The recorded pIC50 for CN1CCC[C@H]1COc1nc2c(c(N3CC4CC(O)C(C3)N4)n1)CCN(c1cc(O)cc3ccccc13)C2 (mixture of isomers) [Example 4] is 8.43

Reported pIC50 for Oc1cc(N2CCc3c(nc(OCC45CCCN4CCC5)nc3N3C[C@H]4CC[C@@H](C3)N4)C2)c2c(Cl)cccc2c1 [Example 115] was 9.22

The recorded pIC50 for c1cc2c(c(N3CCc4c(nc(OCC56CCCN5CCC6)nc4N4C[C@H]5CC[C@@H](C4)N5)C3)c1)CCC2 [Example 104] is 6.12

###

For each entry below, report its pIC50 value.
- measured.target: KRas G12D (Homo sapiens, UniProt P01116, G12D)
- protocol.summary: KRas G12D Binding Assay (TR-FRET displacement of labeled tracer)
- stated.conditions: TR-FRET displacement of Cy5 labelled tracer, biotinylated GDP-loaded KRAS G12D (aa 1:169), 60 minute incubation at 22° C.
Bear in mind: pIC50 is minus log10 of a mol/L concentration; give just that figure.

Briefly, pIC50 measured for CN1CCC[C@H]1COc1nc2c(c(N3C[C@H]4CC[C@@H](C3)N4)n1)CCN(c1cccc3cc(O)cc(Cl)c13)C2 : 6.09

In plain terms, Clc1cccc2cccc(N3CCc4c(nc(OCC56CCCN5CCC6)nc4N4C[C@H]5CC[C@@H](C4)N5)C3)c12 has a documented pIC50 of 8.60

Given item CCc1c(F)ccc2cccc(N3CCc4c(nc(OCC56CCCN5C[C@H](F)C6)nc4N4CC5CCC(C4)N5)C3)c12 (mixture of isomers) , the value recorded as its pIC50 is 8.55

Per the record, CN1CCC[C@H]1COc1nc2c(c(N3C[C@H]4C[C@@H](CC#N)[C@@H](C3)N4)n1)CCN(c1cccc3cccc(Cl)c13)C2 has pIC50 of 7.19

Recorded pIC50 (compound CCc1cccc2cc(O)cc(N3CCc4c(nc(OC[C@@]56CCCN5C[C@H](F)C6)nc4N4C[C@H]5CC[C@@H](C4)N5)C3)c12 ): 9.00

What the record says about CCc1cccc2cccc(N3CCc4c(nc(OC[C@]56CCCN5[C@@H](COC(=O)N5CCOCC5)CC6)nc4N4C[C@H]5CC[C@@H](C4)N5)C3)c12 : pIC50 is 8.92
